Value source: patent US20250034196A1

# assayOverview: in vivo
# Set-up: species or system Beagle Dogs
# reportedConditions: female, Beagle, dog, po, 22 mg/kg, AUClast of CH2107 (Molnupiravir)
assayEndpoint: AUC(0-t) (ng·h/mL)
Kindly answer with a numeric value in ng·h/mL, unit omitted.

Using known records, supply AUC(0-t) for CC(C)C(=O)OC[C@H]1O[C@@H](n2ccc(NO)nc2=O)[C@H](O)[C@@H]1O [Molnupiravir]
596

* * *

# assayOverview: in vivo
# Design: species or system Beagle Dogs
# reportedConditions: male, beagle, dog, po, 10 mg/kg, Tmax of EX-1/NHC/CH2018
assayEndpoint: Tmax (h)
Kindly answer with a numeric value in h, unit omitted.

Using known records, supply Tmax for `O=c1nc(NO)ccn1[C@@H]1O[C@H](CO)[C@@H](O)[C@H]1O`
1
